Reference for the values: paper PMC4787775

# maps each entry to its kcat
Substrate: Cc1c[nH]c(=O)[nH]c1=O
Test details: purified protein
Assay type: biochemical, Neurospora crassa
Condition description: 1 mM α-KG, 0.2 mM (NH4)2Fe(SO4)2, 0.2 mM ascorbic acid, 100 mM Hepes pH 7.5, 25 °C
Answer with a number only, understood to be in s⁻¹.

* NcT7H (thymine-7-hydroxylase) (Neurospora crassa OR74A; R190K) (protein, full length (residues 1-333), C-terminal His6-tag, pET-28a, expressed in E. coli BL21(DE3); Ni-NTA and gel filtration, tag removal not mentioned) MEKAAVNEDGLVIPLIDFSKFLEGDETLKLETAKAILHGFQTAGFIYLKNIPIQPDFREHVFNTSAKFFKLPKEKKLEVGWTTPEANRGYSAPGREKVTQLTDPAEIEKIRSAAPDIKESYEIGREDEPGHPNPWPAEQDDLVGFKSTMNNFFDQCKALHIEVMRAIAVGMGIDANYFDSFVDVGDNILKLLHYPAVKSEVFKINPGQVRAGEHTDYGSITLLFQDSRGGLQVKSPNGQFIDATPIENTVVVNAGDLLARWSNDTIKSTVHRVVEPPKQEDVHPPRYSIAYFCNPNHKSYIEAIPGTYAAESERKYEGINSGKYLVQRLAATY | 0.055

## Task Consider the protein NcT7H (thymine-7-hydroxylase) (Neurospora crassa OR74A; Y217A) (protein, full length (residues 1-333), C-terminal His6-tag, pET-28a, expressed in E. coli BL21(DE3); Ni-NTA and gel filtration, tag removal not mentioned) MEKAAVNEDGLVIPLIDFSKFLEGDETLKLETAKAILHGFQTAGFIYLKNIPIQPDFREHVFNTSAKFFKLPKEKKLEVGWTTPEANRGYSAPGREKVTQLTDPAEIEKIRSAAPDIKESYEIGREDEPGHPNPWPAEQDDLVGFKSTMNNFFDQCKALHIEVMRAIAVGMGIDANYFDSFVDVGDNILRLLHYPAVKSEVFKINPGQVRAGEHTDAGSITLLFQDSRGGLQVKSPNGQFIDATPIENTVVVNAGDLLARWSNDTIKSTVHRVVEPPKQEDVHPPRYSIAYFCNPNHKSYIEAIPGTYAAESERKYEGINSGKYLVQRLAATY and give its recorded kcat.
## Result 0.257

## Task Consider the protein NcT7H (thymine-7-hydroxylase) (Neurospora crassa OR74A; Y217F) (protein, full length (residues 1-333), C-terminal His6-tag, pET-28a, expressed in E. coli BL21(DE3); Ni-NTA and gel filtration, tag removal not mentioned) MEKAAVNEDGLVIPLIDFSKFLEGDETLKLETAKAILHGFQTAGFIYLKNIPIQPDFREHVFNTSAKFFKLPKEKKLEVGWTTPEANRGYSAPGREKVTQLTDPAEIEKIRSAAPDIKESYEIGREDEPGHPNPWPAEQDDLVGFKSTMNNFFDQCKALHIEVMRAIAVGMGIDANYFDSFVDVGDNILRLLHYPAVKSEVFKINPGQVRAGEHTDFGSITLLFQDSRGGLQVKSPNGQFIDATPIENTVVVNAGDLLARWSNDTIKSTVHRVVEPPKQEDVHPPRYSIAYFCNPNHKSYIEAIPGTYAAESERKYEGINSGKYLVQRLAATY and give its recorded kcat.
## Result 0.542

## Task Consider the protein NcT7H (thymine-7-hydroxylase) (Neurospora crassa OR74A) (protein, full length (residues 1-333), C-terminal His6-tag, pET-28a, expressed in E. coli BL21(DE3); Ni-NTA and gel filtration, tag removal not mentioned) MEKAAVNEDGLVIPLIDFSKFLEGDETLKLETAKAILHGFQTAGFIYLKNIPIQPDFREHVFNTSAKFFKLPKEKKLEVGWTTPEANRGYSAPGREKVTQLTDPAEIEKIRSAAPDIKESYEIGREDEPGHPNPWPAEQDDLVGFKSTMNNFFDQCKALHIEVMRAIAVGMGIDANYFDSFVDVGDNILRLLHYPAVKSEVFKINPGQVRAGEHTDYGSITLLFQDSRGGLQVKSPNGQFIDATPIENTVVVNAGDLLARWSNDTIKSTVHRVVEPPKQEDVHPPRYSIAYFCNPNHKSYIEAIPGTYAAESERKYEGINSGKYLVQRLAATY and give its recorded kcat.
## Result 0.417

## Task Consider the protein NcT7H (thymine-7-hydroxylase) (Neurospora crassa OR74A; N87A) (protein, full length (residues 1-333), C-terminal His6-tag, pET-28a, expressed in E. coli BL21(DE3); Ni-NTA and gel filtration, tag removal not mentioned) MEKAAVNEDGLVIPLIDFSKFLEGDETLKLETAKAILHGFQTAGFIYLKNIPIQPDFREHVFNTSAKFFKLPKEKKLEVGWTTPEAARGYSAPGREKVTQLTDPAEIEKIRSAAPDIKESYEIGREDEPGHPNPWPAEQDDLVGFKSTMNNFFDQCKALHIEVMRAIAVGMGIDANYFDSFVDVGDNILRLLHYPAVKSEVFKINPGQVRAGEHTDYGSITLLFQDSRGGLQVKSPNGQFIDATPIENTVVVNAGDLLARWSNDTIKSTVHRVVEPPKQEDVHPPRYSIAYFCNPNHKSYIEAIPGTYAAESERKYEGINSGKYLVQRLAATY and give its recorded kcat.
## Result 0.23
